Target: Calcium and integrin-binding protein 1 (Homo sapiens)
Test: Primary qHTS for Identification of Calcium Integrin Binding Protein 1 (CIB1) Competitor (AID 1508620);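 further: GST tagged CIB1 binding a fluorescein labelled alphaIIb integrin peptide tracer; top concentration of the series differs between compounds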
Conditions: CIB1-GST / FITC-alphaIIb peptide fluorescence polarization; series mostly up to 114 µM
Results filed as inconclusive are left out. The source made the active and inactive calls. The call rests on the fitted dose curve; in most records, active means well fitted inhibition curve with a large enough effect; inconclusive means small, poorly fitted or top-dose-only effect; inactive means flat fitted curve, though single readings scatter.
parameterMeasured: activity change, negative = inhibition

[[record]]
compound = "O=C(Nc1ccc(S(=O)(=O)Nc2nccs2)cc1)C(c1ccccc1)c1ccccc1"
valuereported = "inactive"

[[record]]
compound = "Cc1ccc(S(=O)(=O)c2ccc([N+](=O)[O-])o2)cc1"
valuereported = "inactive"

[[record]]
compound = "COc1ccc(Cl)c(Nc2nc3ccccc3nc2NS(=O)(=O)c2cccc(NC(=O)C(C)(C)N)c2)c1"
valuereported = "inactive"

[[record]]
compound = "CC(=O)O[C@@](C)(C(=O)/C=C/C(C)(C)O)[C@H]1[C@H](O)C[C@@]2(C)[C@@H]3CC=C4[C@@H](C=C(O)C(=O)C4(C)C)[C@]3(C)C(=O)C[C@]12C"
valuereported = "inactive"

[[record]]
compound = "C[C@@H]1O[C@@H](O[C@H]2[C@@H]3C=CO[C@@H](O[C@@H]4O[C@H](CO)[C@@H](O)[C@H](O)[C@H]4O)[C@@H]3[C@@]3(CO)O[C@@H]23)[C@H](OC(=O)/C=C/c2ccc(O)c(O)c2)[C@H](O)[C@H]1O"
valuereported = "inactive"

[[record]]
compound = "Nc1ncnc2c1nc(N)n2[C@@H]1O[C@H](CO)[C@@H](O)[C@H]1O"
valuereported = "inactive"

[[record]]
compound = "CC(=O)O[C@@H]1C[C@@H](OC(C)=O)C(C)(C)/C=C/[C@H](C)[C@H](OC(C)=O)[C@@]2(O)C[C@H](C)[C@H](OC(=O)c3ccccc3)[C@@H]2/C=C/1C"
valuereported = "inactive"

[[record]]
compound = "CC(C)=CCC/C(C)=C/CO[C@@H]1O[C@H](CO)[C@@H](O)[C@H](O)[C@H]1O"
valuereported = "inactive"


From here, focus on the item given below.
Give the measured activity change, negative = inhibition of CC(=O)N1CCc2ccc(O)c(OC3OC(COC4OCC(O)(CO)C4O)C(O)C(O)C3O)c2C1Cc1ccc(O)cc1 (centres undefined) . inactive

###

Tested on: Es-2
Assay: Primary qHTS to identify gynecologic anti-cancer compounds using libraries of approved drugs and bioactive compounds (AID 1345084); further: nearly all actives have a fitted effect of over 55% in size
Conditions: Gynecologic cancer cell panel viability, ATPlite luminescence, 48 h; series mostly up to 57.5 µM
Text: National Center for Advancing Translational Sciences [NCATS] Assay Overview: Chemotherapeutic drug responses vary from cancer to cancer and from patient to patient. […] ATPlite is a luminescence based assay reliant on the conversion of a luciferase substrate to light in the presence of ATP. As a cytotoxic compound will suppress growth and decrease the number of cells, the concentration of ATP will decrease, and less light signal will be detected in the well. […]
Inconclusive results are not listed. Active and inactive are the calls of the source. The call rests on the fitted dose curve; in most records, active means well fitted cell-killing curve with a large enough effect; inconclusive means small, poorly fitted or top-dose-only effect, or effect the other way; inactive means flat fitted curve, though single readings scatter.
Hi! Could you answer with just one of these? Yes for active, No for inactive

Which outcome was assigned to COc1cc(C(=O)OC[C@@]2(O)CO[C@@H](O[C@H]3[C@H](Oc4ccc(C(=O)O)cc4OC)O[C@H](CO)[C@@H](O)[C@@H]3O)[C@@H]2O)ccc1O in this test? No

Could you do the same for Cc1[nH]nc(C(F)(F)F)c1Cc1sc2c(c1C(=O)N1C[C@](C)(O)CO1)c(=O)n(C)c(=O)n2C(C)C , please? No

Could you do the same for NCCCNc1ccc(Nc2nccc(Nc3cc(C4CC4)[nH]n3)n2)cc1 , please? Yes

Could you do the same for O=C(NCC(O)CO)c1ccncc1Nc1ccc(I)cc1F (stereo unspecified) , please? Yes

Could you do the same for CC1(C)CC2C(C1)C(C)(O)C13CC1(COC3=O)C2O (stereo unspecified) , please? No

Could you do the same for COc1cc2c3c(cc4ccccc4c3c1O)NC2=O , please? No

Could you do the same for O=C(Nc1ccn[nH]1)c1c(F)cccc1F , please? No

Could you do the same for CC(C)C(N)C(=O)OCCOCn1cnc2c(=O)[nH]c(N)nc21 (stereo unspecified) , please? No

Could you do the same for COc1ccc(-c2cnc(-c3cccc4c3-c3ccccc3C4=O)o2)cc1 , please? Yes

Could you do the same for N#Cc1c(Oc2ccc(F)c(NC(=O)Cc3cccc(C(F)(F)F)c3)c2)ccc2nc(NC(=O)C3CC3)sc12 , please? Yes

Could you do the same for CCC(Nc1ncnc2nc[nH]c12)c1nc2cccc(F)c2c(=O)n1-c1ccccc1 (stereo unspecified) , please? No
